Where do the numbers come from? From patent US6200963A.

Target: FSH receptor (Homo sapiens, UniProt P23945)
Sequence (P23945 18-695): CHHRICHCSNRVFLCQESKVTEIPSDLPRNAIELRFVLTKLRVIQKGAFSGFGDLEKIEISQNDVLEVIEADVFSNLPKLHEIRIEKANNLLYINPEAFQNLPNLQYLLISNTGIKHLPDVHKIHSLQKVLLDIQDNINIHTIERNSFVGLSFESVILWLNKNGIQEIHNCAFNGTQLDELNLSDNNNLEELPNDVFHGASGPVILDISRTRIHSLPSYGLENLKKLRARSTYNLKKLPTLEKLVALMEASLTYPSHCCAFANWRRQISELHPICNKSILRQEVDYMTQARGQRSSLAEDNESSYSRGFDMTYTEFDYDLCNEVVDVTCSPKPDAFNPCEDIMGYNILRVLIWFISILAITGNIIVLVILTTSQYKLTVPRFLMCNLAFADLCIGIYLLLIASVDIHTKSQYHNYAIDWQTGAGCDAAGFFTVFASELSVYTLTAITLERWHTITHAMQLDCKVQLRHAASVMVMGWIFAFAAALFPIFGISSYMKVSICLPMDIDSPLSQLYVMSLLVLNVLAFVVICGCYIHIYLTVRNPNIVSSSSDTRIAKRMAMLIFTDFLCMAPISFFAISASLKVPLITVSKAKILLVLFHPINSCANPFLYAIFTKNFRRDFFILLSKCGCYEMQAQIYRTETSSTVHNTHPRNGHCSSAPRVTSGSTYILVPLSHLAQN
Test: In Vitro Bio-assay of Agonists and Antagonists to the FSH Receptor (cAMP accumulation in CHO-3D2 cells)
Assay type: cell-based
Parameters: expressed in transfected cells; host or cells: CHO-3D2 cells
Conditions: antagonist mode; hFSH-induced cAMP accumulation (ED20 of FSH, […]), CHO-3D2 cells, 30 min
Structures can show the parent of a compound that is named as a salt.
MEASURED_ATTRIBUTE: pIC50
// field semantics: pIC50 = negative decimal log of concentration (mol/L)

{"columns": ["COMPOUND", "MEASURED_ATTRIBUTE", "REPORTED_VALUE"],
 "data": [
  ["COc1ccc(N=Nc2c(S(=O)(=O)O)cc3cc(Nc4nc(Cl)nc(N(CCC(N)=O)CCC(N)=O)n4)ccc3c2O)cc1 [Example 9, Sodium Salt]", "pIC50", 5.85]
]}

# ---- query compound ----
State the measured pIC50 (FSH receptor (Homo sapiens, UniProt P23945)) of COc1ccc(N=Nc2c(S(=O)(=O)O)cc3cc(Nc4nc(Cl)nc(N(CCO)CCO)n4)ccc3c2O)cc1 [Example 11, Sodium Salt]
5.00
